tested on: CEM cells HIV-1 protection, formazan growth assay; experiment: NCI AIDS Antiviral Assay; details: measured here: growth of uninfected CEM cells
measured quantity: IC50

These recorded examples may help you get a feel for the data.
[[record]]
compound = "Cc1ccc(NC(=O)CCc2nc(=S)[nH][nH]2)cc1"
system_name = "CEM cells HIV-1 protection, formazan growth assay"
measured_value = "331 µM"

[[record]]
compound = "Cc1ccc(S(=O)(=O)OC(c2ccccc2)c2ccccc2)cc1"
system_name = "CEM cells HIV-1 protection, formazan growth assay"
measured_value = "10.5 µM"

[[record]]
compound = "O=C(O)CN1C(=O)c2cccc3cccc(c23)C1=O"
system_name = "CEM cells HIV-1 protection, formazan growth assay"
measured_value = "> 200 µM"

[[record]]
compound = "C/C(O)=C(/C=N/C(=S)Nc1ccc(S(N)(=O)=O)cc1)C(=O)Nc1ccccc1C"
system_name = "CEM cells HIV-1 protection, formazan growth assay"
measured_value = "> 200 µM"

[[record]]
compound = "C[C@]12CCC(=O)C(O)=C1CC[C@@H]1C2CC[C@]2(C)NC(=O)CCC12 (stereo partly specified)"
system_name = "CEM cells HIV-1 protection, formazan growth assay"
measured_value = "> 40.7 µM"


In plain terms, CC(C)COC(=O)NC1C(=O)N2C1SC(C)(C)C2C(=O)O (stereo unspecified) (tested in a mixture with another compound) has a documented IC50 of > 200 µM

Sure, the documented IC50 for CC(=O)NC1=NC(=O)/C(=C/c2ccc(/C=C3/C(=O)N=C(NC(C)=O)N3C)cc2)N1C is 151 µM

The recorded IC50 for COc1ccc(C(=O)C(C(=O)C(=O)Nc2ccc(Cl)c(Cl)c2)c2ccc(OC)cc2)cc1 (stereo unspecified) is > 75.9 µM

Entry under test: CCN(CCN(CC)C(=O)NC)C(=O)NC . Its IC50 was > 200 µM

get_value(item= Cc1cccc(/C=N/NC(=S)NC2CCCCC2)n1 , readout=IC50) returns 10 µM

response.value for CC(C)S(=O)(=O)n1c(N)nc2ccc(/C(=N/O)c3ccccc3)cc21 (field: IC50) = 9.77 µM

# compound CC1(C)N=C(/C(C#N)=[N+](/[O-])C(=O)c2ccccc2)C(C)(C)N1O ; its IC50 = > 200 µM

Field IC50 (entry OC(c1ccccc1)c1ccc(C(O)c2ccccc2)cc1 (stereo unspecified) ) reads > 123 µM

For reference, reported IC50 for O=C1C2C3SC(c4c3ccc3ccccc43)C2C(=O)N1c1ccccc1 (stereo unspecified) stands at > 2.95 µM

Note to self: IC50 recorded for CC1=NC(C)=C(/C(C)=N/NC(=O)c2ccccc2O)C(C)/C1=C(/C)NNC(=O)c1ccccc1O (stereo unspecified) was 8.71 µM

Entry under test: N#CC1=C(N)N(c2ccccc2)C(c2ccco2)C1(C#N)C#N (stereo unspecified) . Its IC50 was 10 µM

Record CC(C)(C)CC(C)(C)SSc1n[nH]c(=S)s1 , field IC50: 17.4 µM

The compound identified as OC1CCCCCCCCCCC1SCCCCl (stereo unspecified) registered its IC50 at > 200 µM

Measured IC50, CC(C)NCCNC(=O)c1ccccc1Nc1c(Cl)cccc1Cl : 14.8 µM

Recorded IC50 (compound CC(=O)NC1=N/C(=C/c2cc([N+](=O)[O-])ccc2O)CN1C ): > 200 µM
